The reported measurements were obtained from ChEMBL document CHEMBL1144472.

molecular target: Induced myeloid leukemia cell differentiation protein Mcl-1 (Homo sapiens); test: Displacement of FAM-Bid BH3 peptide from human Mcl1 by FP-based binding assay
Sequence (Q07820 whole entry): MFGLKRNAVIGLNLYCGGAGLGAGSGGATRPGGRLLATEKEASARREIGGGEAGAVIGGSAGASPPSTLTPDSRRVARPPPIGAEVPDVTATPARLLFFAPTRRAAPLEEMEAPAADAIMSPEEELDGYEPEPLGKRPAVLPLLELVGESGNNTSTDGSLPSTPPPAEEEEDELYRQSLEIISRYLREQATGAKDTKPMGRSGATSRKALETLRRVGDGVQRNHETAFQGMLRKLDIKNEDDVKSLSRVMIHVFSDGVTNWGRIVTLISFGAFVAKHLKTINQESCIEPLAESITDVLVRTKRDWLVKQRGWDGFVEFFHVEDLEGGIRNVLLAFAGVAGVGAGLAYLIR
pKi: −log10 of the molar value.
measured.attribute: pKi

1) CN(CCCc1ccccc1)S(=O)(=O)c1cc(C(=O)N2CCc3ccc(S(=O)(=O)NCCc4ccccc4)cc3C2)c(O)c(O)c1O :: 6.82
